# TEST_TARGET: E. coli DNA gyrase (Escherichia coli, UniProt P0AES4+P0AES6)
# Construct: purchased TopoGEN TG2001G
# Sequence (P0AES4 whole entry, one chain of several): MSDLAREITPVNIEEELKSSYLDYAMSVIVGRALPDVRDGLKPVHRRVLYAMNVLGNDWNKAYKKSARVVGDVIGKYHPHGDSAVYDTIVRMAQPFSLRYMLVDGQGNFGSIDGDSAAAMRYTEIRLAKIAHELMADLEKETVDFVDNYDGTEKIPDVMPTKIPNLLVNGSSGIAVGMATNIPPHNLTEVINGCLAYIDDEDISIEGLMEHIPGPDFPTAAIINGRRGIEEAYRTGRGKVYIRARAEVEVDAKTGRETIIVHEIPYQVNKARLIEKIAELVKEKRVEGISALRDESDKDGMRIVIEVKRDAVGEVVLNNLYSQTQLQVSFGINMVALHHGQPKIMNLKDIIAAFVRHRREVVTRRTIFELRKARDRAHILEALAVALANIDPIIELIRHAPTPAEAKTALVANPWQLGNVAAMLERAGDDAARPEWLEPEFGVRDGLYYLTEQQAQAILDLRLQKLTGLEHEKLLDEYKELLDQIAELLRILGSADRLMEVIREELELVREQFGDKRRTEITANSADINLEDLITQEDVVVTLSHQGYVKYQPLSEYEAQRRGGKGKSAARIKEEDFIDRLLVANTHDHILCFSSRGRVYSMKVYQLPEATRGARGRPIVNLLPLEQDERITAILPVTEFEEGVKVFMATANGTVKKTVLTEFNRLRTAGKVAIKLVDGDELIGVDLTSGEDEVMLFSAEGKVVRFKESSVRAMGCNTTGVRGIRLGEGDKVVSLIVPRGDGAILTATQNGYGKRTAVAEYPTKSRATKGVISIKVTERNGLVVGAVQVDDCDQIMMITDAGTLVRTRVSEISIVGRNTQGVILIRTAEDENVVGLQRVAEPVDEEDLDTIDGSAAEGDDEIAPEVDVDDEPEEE
# ASSAY_SUMMARY: DNA gyrase supercoiling assay
# Assay type: biochemical
ATTRIBUTE_MEASURED: IC50

> print(dat)
                                   compound    result
1  CCOc1cc(C(=O)O)ccc1NC(=O)c1ccc(NC(=O)c2ccc(N)cc2)c(OCC)c1O [Compound 4, Coralmycin F]  > 300 µM

---

# TEST_TARGET: E. coli DNA gyrase (Escherichia coli, UniProt P0AES4+P0AES6)
# Construct: purchased TopoGEN TG2001G
# ASSAY_SUMMARY: DNA gyrase supercoiling assay
# Assay type: biochemical
# CONDITION_CONTEXT: relaxed plasmid, 37 °C for 30 min, agarose gel band densities; read-out: IC50, inhibition of the supercoiling activity of E. coli DNA gyrase
pIC50: −log10 of the molar value.
ATTRIBUTE_MEASURED: pIC50

COMPOUND	NUMERIC_READOUT
CO[C@@H](C(N)=O)[C@H](NC(=O)c1ccc(NC(=O)c2ccc([N+](=O)[O-])cc2)cc1)C(=O)Nc1ccc(C(=O)Nc2ccc(C(=O)Nc3ccc(C(=O)O)cc3OC(C)C)c(O)c2OC(C)C)cc1 [Compound 11, cystobactamid 919-2, reference compound]	6.02
CO[C@@H](C(=O)O)[C@H](NC(=O)c1ccc(NC(=O)c2ccc([N+](=O)[O-])cc2)cc1)C(=O)Nc1ccc(C(=O)Nc2ccc(C(=O)Nc3ccc(C(=O)O)cc3OC(C)C)c(O)c2OC(C)C)cc1 [Compound 1, Coralmycin C]	6.38

---

As a worked illustration, we turn to MIC data collected for Streptococcus pneumonia KCTC 5412.

MOLECULE	MODIFIER	MIC [µg/mL]
CO[C@@H](C(=O)O)[C@H](NC(=O)c1ccc(NC(=O)c2ccc([N+](=O)[O-])cc2)cc1)C(=O)Nc1ccc(C(=O)Nc2ccc(C(=O)Nc3ccc(C(=O)O)cc3OC(C)C)c(O)c2OC(C)C)cc1 [Compound 1, Coralmycin C]	=	4
COc1cc(C(=O)O)ccc1NC(=O)c1ccc(NC(=O)c2ccc(NC(=O)[C@@H](NC(=O)c3ccc(NC(=O)c4ccc([N+](=O)[O-])cc4)cc3)[C@@H](OC)C(N)=O)cc2)c(OC(C)C)c1O [Compound 8, cystobactamid 891-2]	=	2
O=C(O)c1cn(C2CC2)c2cc(N3CCNCC3)c(F)cc2c1=O [Cip, Ciprofloxacin, reference compound]	=	0.25
CO[C@@H](C(N)=O)[C@H](NC(=O)c1ccc(NC(=O)c2ccc(N)cc2)cc1)C(=O)Nc1ccc(C(=O)Nc2ccc(C(=O)Nc3ccc(C(=O)O)cc3OC(C)C)c(O)c2OC(C)C)cc1 [Compound 2, Coralmycin D]	=	2
CCOc1cc(C(=O)O)ccc1NC(=O)c1ccc(NC(=O)c2ccc(N)cc2)c(OC(C)C)c1O [Compound 7, Coralmycin I]	>	32

---

# TEST_TARGET: E. coli DNA gyrase (Escherichia coli, UniProt P0AES4+P0AES6)
# Construct: purchased TopoGEN TG2001G
# ASSAY_SUMMARY: DNA gyrase supercoiling assay
# Type: biochemical
# CONDITION_CONTEXT: relaxed plasmid, 37 °C for 30 min, agarose gel band densities; read-out: IC50, inhibition of the supercoiling activity of E. coli DNA gyrase
Listing: IC50 of selected molecules

MOLECULE	TEST_TARGET	RESULT_UNITS	MODIFIER	IC50
CC(C)Oc1cc(C(=O)O)ccc1NC(=O)c1ccc(NC(=O)c2ccc(N)cc2)c(OC(C)C)c1O	E. coli DNA gyrase (Escherichia coli, UniProt P0AES4+P0AES6)	nM	>	300000
CO[C@@H](C(N)=O)[C@H](NC(=O)c1ccc(NC(=O)c2ccc(N)cc2)cc1)C(=O)Nc1ccc(C(=O)Nc2ccc(C(=O)Nc3ccc(C(=O)O)cc3OC(C)C)c(O)c2OC(C)C)cc1	E. coli DNA gyrase (Escherichia coli, UniProt P0AES4+P0AES6)	nM	=	510
CCOc1cc(C(=O)O)ccc1NC(=O)c1ccc(NC(=O)c2ccc(NC(=O)[C@@H](NC(=O)c3ccc(NC(=O)c4ccc([N+](=O)[O-])cc4)cc3)[C@@H](OC)C(N)=O)cc2)c(OC(C)C)c1O	E. coli DNA gyrase (Escherichia coli, UniProt P0AES4+P0AES6)	nM	=	130
CO[C@H](C(=O)O)[C@H](NC(=O)c1ccc(NC(=O)c2ccc([N+](=O)[O-])cc2)cc1)C(=O)Nc1ccc(C(=O)Nc2ccc(C(=O)Nc3ccc(C(=O)O)cc3OC(C)C)c(O)c2OC(C)C)cc1 [Compound 13, coralmycin B, reference compound]	E. coli DNA gyrase (Escherichia coli, UniProt P0AES4+P0AES6)	nM	=	1070
CO[C@@H](C(N)=O)[C@H](NC(=O)c1ccc(N)cc1)C(=O)Nc1ccc(C(=O)Nc2ccc(C(=O)Nc3ccc(C(=O)O)cc3OC(C)C)c(O)c2OC(C)C)cc1	E. coli DNA gyrase (Escherichia coli, UniProt P0AES4+P0AES6)	nM	=	39100
